- System: Calu-3
- test: cell viability relative to DMSO; higher = less toxic
- study_conditions: 72 h; 1000 nM
value_kind: cell viability (%)
Give just the numeric value; % need not be written.

[[record]]
compound = "N#Cc1cccc(C(=O)Nc2cc(-c3ccccc3)nn2-c2ccccc2)c1 [CDPPB]"
value_kind = "cell viability"
reported_measurement = 97.2

[[record]]
compound = "Nc1ncccc1-c1nc2ccc(-c3ccccc3)nc2n1-c1ccc(C2(N)CCC2)cc1 [ARQ-092]"
value_kind = "cell viability"
reported_measurement = 76.3

[[record]]
compound = "CC(C)OC(=O)[C@H](C)N[P@@](=O)(OC[C@H]1O[C@@H](n2ccc(=O)[nH]c2=O)[C@](C)(F)[C@@H]1O)Oc1ccccc1 [PSI-7976]"
value_kind = "cell viability"
reported_measurement = 93.3

[[record]]
compound = "CC1(C)C(=O)N(CCN2CCC(C(=O)c3ccc(F)cc3)CC2)c2ccccc21"
value_kind = "cell viability"
reported_measurement = 98.4

[[record]]
compound = "O[C@@H](C[C@H]1c2ccccc2-c2cncn21)C1CCCCC1 [NLG919]"
value_kind = "cell viability"
reported_measurement = 105


[ask] Query (compound): "Cc1c(C(=O)NCCCO)cnn1-c1nc(-c2cccc(C(F)(F)F)c2)cs1" ; field requested: cell viability
[reply] 104

[ask] Name the reported cell viability value associated with the compound CCN(CC)CCOc1ccc(Cc2ccccc2)cc1 [DPPE]
[reply] 101

[ask] Data request, read-out cell viability, for O=C(O)[C@@H]1C[C@@H](C2CCCCC2)CN1C(=O)CP(=O)(O)CCCCc1ccccc1 [fosinoprilat]
[reply] 95.1

[ask] Fill in: cell viability of CON(C)C(=O)N1N=C(c2cc(F)ccc2F)S[C@@]1(CCCN)c1ccccc1 [filanesib] is ___
[reply] 88.1

[ask] Fill in the blank: the reported cell viability of "C[C@@H](NCc1cc(Br)cc2nc(O)c(O)nc12)P(=O)(O)O" is ____.
[reply] 110

[ask] Need cell viability of CN[C@@H](C)[C@H]1[C@H](O)C[C@@]2(C)[C@@H]3CC[C@H]4C(C)(C)[C@@H](NC)CC[C@@]45C[C@@]35CC[C@]12C [cyclovirobuxin-D] , thanks.
[reply] 99.2

[ask] Which cell viability reading was recorded for the compound O=NO [sodium-nitrite] ?
[reply] 94.8

[ask] Suppose we examine the compound O=C(NCC(=O)N1CCCC1)Nc1ccc2cnccc2c1 [SGC-707] ; what cell viability value has been reported?
[reply] 86.2

[ask] Name the reported cell viability value associated with the compound O=C(O)c1ccccc1-c1ccc(C(F)(F)F)cc1 [xenalipin]
[reply] 98.6

[ask] Using the record for "CC1=C(/C=C/C(=C/C=C/C(C)=C/C(=O)O)c2ccc(C)cc2)C(C)(C)CCC1" , report its cell viability.
[reply] 102

[ask] Return reported cell viability; argument: COc1ccc(CNCc2cccc3ccccc23)cc1 [ML133]
[reply] 104

[ask] // cell viability lookup, key: CC(=O)OCC(=O)NCCCOc1cccc(CN2CCCCC2)c1 [roxatidine-acetate]
[reply] 99.5

[ask] Could you share which cell viability value was measured for COc1nc(C)nc(Cl)c1NC1=NCCN1 [moxonidine] ?
[reply] 101

[ask] # query: cell viability of entry CC(C)(C)n1nc(-c2cccc3ccccc23)c2c(N)ncnc21 [1-naphthyl-PP1]
[reply] 100

[ask] Form field: reported cell viability of CC(C)(N)C(=O)N[C@H](COCc1ccccc1)C(=O)N1CCC2(CC1)CN(S(C)(=O)=O)c1ccccc12 [ibutamoren]
[reply] 105

[ask] Any idea what its cell viability is? The compound is CC[C@@H](C(N)=O)N1CCCC1=O [levetiracetam]
[reply] 103

[ask] Entry under review: CCOC(=O)c1ccc(OC(=O)CCCCCNC(=N)N)cc1 [gabexate] . Reported cell viability?
[reply] 86.9
